- Test system: Jurkat cells
- Assay Method Text: Cell proliferation (CellTiter-Glo, 72 hour), Jurkat
- Type: cell-based
- Assay Conditions: Homo sapiens, blood cancer cell line
Outcome Measure: IC50

CN(C)C/C=C/C(=O)Nc1ccc(C(=O)NC23CC4CC(C2)CC(Nc2ncc(Cl)c(-c5c[nH]c6ccccc56)n2)(C4)C3)cc1 : 500 to 5000 nM
C=CC(=O)Nc1ccc(C(=O)NC2CCCC(Nc3ncc(Cl)c(-c4sc(C)nc4C)n3)C2)cc1 (stereo not drawn) : < 500 nM
CN(C)C/C=C/C(=O)Nc1cccc(C(=O)NC2CCC(Nc3ncc(Cl)c(-c4c[nH]c5ccccc45)n3)CC2)c1 (stereo not drawn) : < 500 nM
CN1CCN(C/C=C/C(=O)Nc2ccc(C(=O)N[C@H]3CCC[C@@H](Nc4ncc(Cl)c(-c5c[nH]c6ccccc56)n4)C3)cc2)CC1 : < 500 nM
CN(C)C/C=C/C(=O)Nc1ccc(NC(=O)[C@H]2CCC[C@@H](Nc3ncc(Cl)c(-c4c[nH]c5ccccc45)n3)C2)cc1 : < 500 nM

Report IC50, nothing else, for this compound: CN(C/C=C/C(=O)Nc1ccc(C(=O)N[C@H]2CCC[C@@H](Nc3ncc(Cl)c(-c4c[nH]c5ccccc45)n3)C2)cc1)CC(=O)O
< 500 nM
